The entries below come with measured stoichiometry N values attached.
# Assayed system: T1, C-terminal cargo-binding domain (CBD) of Myosin VI (residues 1157–1285) (human, UniProt Q9UM54-1 1157-1285)
# T1 construct: monomer by light scattering and ultracentrifugation; 15N-labelled in some NMR experiments; also called C-terminal CBD of Myosin VI; source: E. coli BL21 (DE3), purified (Ni-NTA, SEC); not shown: thioredoxin, N-terminal, cleaved; His6, N-terminal, cleaved
# T1 sequence (Q9UM54 1166-1294): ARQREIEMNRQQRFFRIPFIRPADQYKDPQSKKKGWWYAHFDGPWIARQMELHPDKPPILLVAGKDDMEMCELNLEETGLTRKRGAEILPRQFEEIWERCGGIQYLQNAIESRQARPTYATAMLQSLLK
# Protocol details: ITC; 25 °C, 20 mM Tris pH 7.9, 100 mM NaCl, 1 mM DTT; 50 µM protein in the cell, 500 µM in the syringe; one-site binding model
# Settings: both partners purified
Measured endpoint: stoichiometry N

[[record]]
binder = "GVTSEGKFDKFLEERAKAADRLPNLSS (domain or fragment, human, UniProt O60784-2 437-463, looked up, monomer by light scattering and ultracentrifugation; also called Tom1 MBM; source: E. coli BL21 (DE3), purified (Ni-NTA, SEC); not shown: thioredoxin, N-terminal, cleaved; His6, N-terminal, cleaved) [Tom1(437–463), Myosin VI-binding motif]"
measured_endpoint = "stoichiometry N"
result_value = 0.74

[[record]]
binder = "Tom1(215–493) (domain or fragment, human, UniProt O60784-2 215-493, looked up, source: E. coli BL21 (DE3), purified (Ni-NTA, SEC); not shown: thioredoxin, N-terminal, cleaved; His6, N-terminal, cleaved) EQIGKLRSELEMVSGNVRVMSEMLTELVPTQAEPADLELLQELNRTCRAMQQRVLELIPQIANEQLTEELLIVNDNLNNVFLRHERFERFRTGQTTKAPSEAEPAADLIDMGPDPAATGNLSSQLAGMNLGSSSVRAGLQSLEASGRLEDEFDMFALTRGSSLADQRKEVKYEAPQATDGLAGALDARQQSTGAIPVTQACLMEDIEQWLSTDVGNDAEEPKGVTSEGKFDKFLEERAKAADRLPNLSSPSAEGPPGPPSGPAPRKKTQEKDDDMLFAL"
measured_endpoint = "stoichiometry N"
result_value = 1.44

[[record]]
binder = "Tom1(392–493) (domain or fragment, human, UniProt O60784-2 392-493, looked up, 15N-labelled in one NMR titration; source: E. coli BL21 (DE3), purified (Ni-NTA, SEC); not shown: thioredoxin, N-terminal, cleaved; His6, N-terminal, cleaved) TDGLAGALDARQQSTGAIPVTQACLMEDIEQWLSTDVGNDAEEPKGVTSEGKFDKFLEERAKAADRLPNLSSPSAEGPPGPPSGPAPRKKTQEKDDDMLFAL"
measured_endpoint = "stoichiometry N"
result_value = 1.12

[[record]]
binder = "Tom1(392–463) (domain or fragment, human, UniProt O60784-2 392-463, looked up, 15N-labelled in one NMR titration; source: E. coli BL21 (DE3), purified (Ni-NTA, SEC); not shown: thioredoxin, N-terminal, cleaved; His6, N-terminal, cleaved) TDGLAGALDARQQSTGAIPVTQACLMEDIEQWLSTDVGNDAEEPKGVTSEGKFDKFLEERAKAADRLPNLSS"
measured_endpoint = "stoichiometry N"
result_value = 0.91

